Test: Plasma pharmacokinetics in vivo
Details: SD, rat, plasma, oral, 22 mg/kg; dFdC metabolized from Cbz-dFdC after i.g. Cbz-dFdC, rats, 12 h
Assay Metric: concentration at 12 h

• Nc1ccn([C@@H]2O[C@H](CO)[C@@H](O)C2(F)F)c(=O)n1 = ~600 ng/mL

###

Experiment: Plasma pharmacokinetics in vivo
Conditions: SD, rat, plasma, oral, 22 mg/kg; dFdC metabolized from Cbz-dFdC after i.g. Cbz-dFdC, rats, 48 h
Assay Metric: concentration at 48 h

* Nc1ccn([C@@H]2O[C@H](CO)[C@@H](O)C2(F)F)c(=O)n1 | ~130 ng/mL
